System: human gastric epithelial cells (hGECs)
assay.method.text: Reprogramming of human gastric epithelial cells (hGECs) to induced endodermal progenitor cells (hiEndoPCs); clonal formation efficiency
Type: cell-based
stated.conditions: removed one by one from 8 small molecule compounds (8M); aGSEMFs supporting cells; day 15
reported.metric: clonal formation efficiency when the compound was removed from 8M

Worked cases, answers included:
INSERT INTO measurements (compound, value) VALUES
  ('O=C(O)C(Cc1c[nH]c2ccccc12)N1C(=O)c2ccccc2C1=O (stereo not shown)', 'obviously decreased'),
  ('COC(=O)C1=C(C)NC(C)=C([N+](=O)[O-])C1c1ccccc1C(F)(F)F (stereo not shown)', 'obviously decreased'),
  ('O=C(NOC[C@H](O)CO)c1ccc(F)c(F)c1Nc1ccc(I)cc1F', 'increased'),
  ('O=C(O)/C=C(/CCc1ccc(Cl)cc1)c1ccccc1', 'increased');

Now turn to the next compound.
The reported value for `COc1cc2nc(N3CCCN(C)CC3)nc(NC3CCN(Cc4ccccc4)CC3)c2cc1OC` in terms of clonal formation efficiency when the compound was removed from 8M is obviously decreased

---

Tested on: human gastric epithelial cells (hGECs)
assay.method.text: Reprogramming of human gastric epithelial cells (hGECs) to induced endodermal progenitor cells (hiEndoPCs); clonal formation efficiency
Assay type: cell-based
stated.conditions: removed one by one from BBRS combination; aGSEMFs supporting cells
reported.metric: clonal formation efficiency when the compound was removed from BBRS

INSERT INTO measurements (compound, value) VALUES
  ('COc1cc2nc(N3CCCN(C)CC3)nc(NC3CCN(Cc4ccccc4)CC3)c2cc1OC', 'significantly decreased'),
  ('O=C(O)C(Cc1c[nH]c2ccccc12)N1C(=O)c2ccccc2C1=O (stereo not shown)', 'significantly decreased'),
  ('COC(=O)C1=C(C)NC(C)=C([N+](=O)[O-])C1c1ccccc1C(F)(F)F (stereo not shown)', 'significantly decreased');
